procedure_details: NCI Yeast Anticancer Drug Screen. Data for the mlh1 rad18 strain (AID 175)
condition_context: S. cerevisiae mlh1 rad18 strain growth inhibition; at 50.0 µM; hits give high values
About 79,000 compounds went through this panel and 15% of them were active in at least one assay; those are over-represented in the sample as a whole.
quantity: growth inhibition (%)
Respond numerically; units are % and should not be typed.

molecule | growth inhibition (%)
CCOC(=O)c1ccc([N+](=O)[O-])cc1 | 21.1
Cc1ccc(OS(=O)(=O)c2ccccc2)cc1 | 36.6
CN(C)N=Nc1cccc(Cl)c1 | 14.2
CC(C)NC(=O)OCc1c(COC(=O)NC(C)C)c(S(=O)c2ccccc2)n2c1CCC2 (centres undefined) | -6.4

Exercise: // query growth inhibition value for entry C=CC(O)C(C)C (centres undefined)
Key: 3.1

Exercise: Also `COc1ccc(CNc2nc3ccc(C(F)(F)F)cc3nc2-c2ccccc2)cc1OC` ?
Key: -11.9

Exercise: Also CC(OC(=O)Nc1ccccc1)c1ccccc1 (centres undefined) ?
Key: 17.4

Exercise: Also `S=C(NCCNC(=S)SCc1c(Cl)c(Cl)c(Cl)c(Cl)c1Cl)SCc1c(Cl)c(Cl)c(Cl)c(Cl)c1Cl` ?
Key: 59.8

Exercise: Also CC#CCCC1CCCCNC1=O (centres undefined) ?
Key: 3.7

Exercise: Also `Cc1cc2c(=O)c(C)c[nH]c2cc1Cl` ?
Key: -7.55

Exercise: Also `CCCC(=O)n1[nH]c(=O)n(C(C)(C)C)c1=O` ?
Key: -22.8

Exercise: Also `O=C1CCCC(=O)C1=Cc1c[nH]c2ccccc12` ?
Key: 15.1

Exercise: Also `O=C(O)CCSC1=NCCN1` ?
Key: -10.6

Exercise: Also `CCN(CC)CCN(CC)CC(=O)Nc1ccccc1Cl` ?
Key: -14.2
